assay: Unbound fraction in C57Bl/6 mouse brain; format: ADME, tissue-based
Parameter: fraction unbound
In your answer, state the number alone without any accompanying words.

Ask | Endpoint output: fraction unbound of C[C@@H]1CN(c2cc(-c3n[nH]c4ccc(OC5(C)CC5)cc34)ncn2)C[C@H](C)O1 . Value?
Reply | 0.009

* * *

biological target: Sodium-dependent noradrenaline transporter (Homo sapiens)
Sequence (P23975 whole entry): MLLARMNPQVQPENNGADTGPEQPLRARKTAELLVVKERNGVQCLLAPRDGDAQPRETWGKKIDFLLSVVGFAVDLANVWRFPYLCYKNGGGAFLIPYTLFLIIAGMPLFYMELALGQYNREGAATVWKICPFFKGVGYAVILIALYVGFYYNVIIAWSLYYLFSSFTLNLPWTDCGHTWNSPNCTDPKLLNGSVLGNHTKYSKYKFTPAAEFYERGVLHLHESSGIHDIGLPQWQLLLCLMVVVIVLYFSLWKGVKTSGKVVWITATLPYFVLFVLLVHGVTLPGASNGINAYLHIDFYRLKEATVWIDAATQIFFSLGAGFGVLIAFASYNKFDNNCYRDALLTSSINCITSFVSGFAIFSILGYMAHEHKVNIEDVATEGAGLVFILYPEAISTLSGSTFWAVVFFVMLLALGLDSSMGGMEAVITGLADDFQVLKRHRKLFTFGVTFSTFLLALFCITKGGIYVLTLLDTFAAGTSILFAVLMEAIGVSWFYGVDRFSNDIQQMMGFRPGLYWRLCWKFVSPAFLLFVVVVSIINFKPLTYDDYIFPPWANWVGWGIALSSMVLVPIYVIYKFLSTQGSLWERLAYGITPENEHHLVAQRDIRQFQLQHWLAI
Parameter: IC50
Enter the number, and then the unit.

Ask | What reported IC50 corresponds to C[C@@H]1CN(c2cc(-c3n[nH]c4ccc(OC5(C)CC5)cc34)ncn2)C[C@H](C)O1 on Sodium-dependent noradrenaline transporter (Homo sapiens)?
Reply | 3.8 µM

* * *

assay: AUC in C57Bl/6 mouse at 2 mg/kg, iv measured after 480 mins by LC-MS/MS analysis; assay type: ADME, organism-based; conditions: in vivo
Parameter: AUC at 8 h (µM·h)
Reply numerically in µM·h, unit not repeated.

Ask | Recorded AUC at 8 h of C[C@@H]1CN(c2cc(-c3n[nH]c4ccc(OC5(C)CC5)cc34)ncn2)C[C@H](C)O1 , please.
Reply | 0.664
